tested-target: rat OX1R (Rattus norvegicus, UniProt P56718)
Construct: expressed in transfected cells; host or cells: HEK; cells from GNF, San Diego
Sequence (P56718 whole entry): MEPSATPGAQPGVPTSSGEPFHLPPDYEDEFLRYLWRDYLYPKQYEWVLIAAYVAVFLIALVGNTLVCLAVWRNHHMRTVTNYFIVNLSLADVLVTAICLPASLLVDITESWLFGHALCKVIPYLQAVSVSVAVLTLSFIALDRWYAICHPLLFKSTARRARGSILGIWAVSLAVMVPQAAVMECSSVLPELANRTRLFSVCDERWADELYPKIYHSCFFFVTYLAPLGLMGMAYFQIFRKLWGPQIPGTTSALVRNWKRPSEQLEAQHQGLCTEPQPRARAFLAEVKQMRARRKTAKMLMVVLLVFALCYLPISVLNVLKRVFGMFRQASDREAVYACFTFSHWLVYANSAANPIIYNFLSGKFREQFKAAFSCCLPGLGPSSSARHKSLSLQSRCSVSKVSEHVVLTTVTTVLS
experiment-summary: FLIPR orexin A-stimulated calcium accumulation, rat OX1R
Assay type: cell-based
condition: HEK cells, antagonist incubation 2 h
measured-parameter: pKi
# reply with the number alone; pKi is -log10 of concentration in mol/L

Example entries begin here.
- COc1ccnc(N2CCC3(CCCN(Cc4c[nH]c5ccccc45)C3=O)CC2)n1: 6.56
- Cc1ccc(-c2ncccn2)c(C(=O)N2C[C@H](COc3ccc(F)cn3)CC[C@H]2C)c1: 9.30
- CNC(=O)[C@@H](c1ccccc1)N1CCc2cc(OC)c(OC)cc2[C@@H]1CCc1ccc(C(F)(F)F)cc1: 7.95

Then there is this molecule:
Quick check: pKi on rat OX1R (Rattus norvegicus, UniProt P56718), item Cc1nc(C(=O)N2CCCC[C@H]2CNC(=O)c2cccc3occc23)c(-c2ccc(F)cc2)s1 ?
10.17

Data provenance is paper PMC3847553.
